Measured values drawn from ChEMBL document CHEMBL2203177 for this set.

System: Escherichia coli
Assay: Antibacterial activity against Escherichia coli DSM 30083 assessed as growth inhibition after 18 hrs
Assay type: functional
Conditions: DSM 30083, 18 h
Peptide text beside a SMILES is read from it.
parameter-measured: MIC (µM)
Express it in µM; write the number only.

Please report the recorded MIC for N=C(N)NCCC[C@H](NC(=O)[C@H](Cc1c[nH]c2ccccc12)NC(=O)[C@H](CCCNC(=N)N)NC(=O)[C@H](Cc1c[nH]c2ccccc12)NC(=O)[C@H](CCCNC(=N)N)NC(=O)[C@@H](N)CCCCN)C(=O)N[C@@H](Cc1c[nH]c2ccccc12)C(N)=O (H-KRWRWRW-NH2) . 18

###

System: Pseudomonas aeruginosa
Test: Antibacterial activity against Pseudomonas aeruginosa DSM 50071 assessed as growth inhibition after 18 hrs
Assay type: functional
Details: DSM 50071, 18 h
Peptide text beside a SMILES is read from it. * marks the point of attachment. Myristoyl = CCCCCCCCCCCCCC(=O)*; Lauroyl = CCCCCCCCCCCC(=O)*; Octanoyl = CCCCCCCC(=O)*
parameter-measured: MIC

Some entries whose results are on file:
[[record]]
compound = "CCCCCCCC(=O)NCCCC[C@H](NC(=O)[C@H](Cc1c[nH]c2ccccc12)NC(=O)[C@H](CCCNC(=N)N)NC(=O)[C@H](Cc1c[nH]c2ccccc12)NC(=O)[C@H](CCCNC(=N)N)NC(=O)[C@H](Cc1c[nH]c2ccccc12)NC(=O)[C@@H](N)CCCNC(=N)N)C(N)=O (H-RWRWRWK(Octanoyl)-NH2)"
parameter_measured = "MIC"
result = "18 µM"

[[record]]
compound = "CCCCCCCC(=O)NCCCC[C@H](N)C(=O)N[C@@H](CCCNC(=N)N)C(=O)N[C@@H](Cc1c[nH]c2ccccc12)C(=O)N[C@@H](CCCNC(=N)N)C(=O)N[C@@H](Cc1c[nH]c2ccccc12)C(=O)N[C@@H](CCCNC(=N)N)C(=O)N[C@@H](Cc1c[nH]c2ccccc12)C(N)=O (H-K(Octanoyl)RWRWRW-NH2)"
parameter_measured = "MIC"
result = "9 µM"

[[record]]
compound = "CCCCCCCCCCCC(=O)NCCCC[C@H](N)C(=O)N[C@@H](CCCNC(=N)N)C(=O)N[C@@H](Cc1c[nH]c2ccccc12)C(=O)N[C@@H](CCCNC(=N)N)C(=O)N[C@@H](Cc1c[nH]c2ccccc12)C(=O)N[C@@H](CCCNC(=N)N)C(=O)N[C@@H](Cc1c[nH]c2ccccc12)C(N)=O (H-K(Lauroyl)RWRWRW-NH2)"
parameter_measured = "MIC"
result = "> 100 µM"

[[record]]
compound = "CCCCCCCCCCCCCC(=O)NCCCC[C@H](NC(=O)[C@H](Cc1c[nH]c2ccccc12)NC(=O)[C@H](CCCNC(=N)N)NC(=O)[C@H](Cc1c[nH]c2ccccc12)NC(=O)[C@H](CCCNC(=N)N)NC(=O)[C@H](Cc1c[nH]c2ccccc12)NC(=O)[C@@H](N)CCCNC(=N)N)C(N)=O (H-RWRWRWK(Myristoyl)-NH2)"
parameter_measured = "MIC"
result = "70 µM"

[[record]]
compound = "CCCCCCCCCCCCCC(=O)NCCCC[C@H](N)C(=O)N[C@@H](CCCNC(=N)N)C(=O)N[C@@H](Cc1c[nH]c2ccccc12)C(=O)N[C@@H](CCCNC(=N)N)C(=O)N[C@@H](Cc1c[nH]c2ccccc12)C(=O)N[C@@H](CCCNC(=N)N)C(=O)N[C@@H](Cc1c[nH]c2ccccc12)C(N)=O (H-K(Myristoyl)RWRWRW-NH2)"
parameter_measured = "MIC"
result = "> 100 µM"


Now let's try a different one.
Please report the recorded MIC for N=C(N)NCCC[C@H](NC(=O)[C@H](Cc1c[nH]c2ccccc12)NC(=O)[C@H](CCCNC(=N)N)NC(=O)[C@H](Cc1c[nH]c2ccccc12)NC(=O)[C@@H](N)CCCNC(=N)N)C(=O)N[C@@H](Cc1c[nH]c2ccccc12)C(N)=O (H-RWRWRW-NH2) . > 100 µM
